# credit: ChEMBL document CHEMBL1146376

experimentalDetails: Cytotoxicity against MRC5 cells
Assay type: cell-based, Homo sapiens
statedConditions: human, MRC5 cells
Consider the cut-off 200 µM. If the recorded CC50 is strictly smaller, the label is criterion met; if not, the label is criterion not met.

Enquiry: Given the entry COc1cc(OC)c2c(c1)OC(c1ccc(OC)c(OC)c1)C(O)C2 (stereo not given) , would its reported CC50 be below 200 µM?
Return: criterion met

Enquiry: Does COc1cc(OC)c2c(c1)OC(c1ccc(OC)c(OC)c1)C(OC)C2 (stereo not given) have CC50 strictly under 200 µM?
Return: criterion met

----------
experimentalDetails: Selectivity index, ratio of CC50 for MRC5 cells to IC50 for HCMV
Assay type: functional
quantityName: Ratio CC50/IC50
Write the number on its own, no unit after it.

Below, each entry is followed by its recorded Ratio CC50/IC50 result.
{"columns": ["molecule", "resultNumber"],
 "data": [
  ["COc1ccc(C[C@H]2COC(=O)[C@@H]2Cc2ccc(O[C@@H]3O[C@H](CO)[C@@H](O)[C@H](O)[C@H]3O)c(OC)c2)cc1OC", 15],
  ["COc1cc(OC)c2c(c1)OC(c1ccc(OC)c(OC)c1)C(OC)C2 (configuration not stated)", 4],
  ["COc1ccc2c(c1OC)C(C#N)N1CCc3cc4c(cc3C1=C2)OCO4 (configuration not stated)", 18],
  ["COc1ccc2c(c1OC)C(C(Cl)(Cl)Cl)N1CCc3cc4c(cc3C1=C2)OCO4 (configuration not stated)", 16],
  ["COc1ccc2c(c1OC)CN1CCc3cc4c(cc3[C@@H]1C2)OCO4", 10],
  ["COc1ccc2cc3[n+](cc2c1OC)CCc1cc2c(cc1-3)OCO2.[Cl-] [BERBERINE CHLORIDE]", 110],
  ["COc1cc(C[C@H]2C(=O)OC[C@@H]2Cc2ccc(OC)c(OC)c2)ccc1O", 36],
  ["COc1ccc(C2CC(=O)c3c(OC)cc(O)cc3O2)cc1 (configuration not stated)", 0.13]
]}

Enquiry: Could you please provide reported Ratio CC50/IC50 for Nc1nc2c(ncn2COC(CO)CO)c(=O)[nH]1 ? Thanks!
Return: 1100

Enquiry: Give Ratio CC50/IC50 for the following molecule: COc1ccc(Cc2nccc3cc(OC)c(OC)cc23)cc1OC.Cl [PAPAVERINE HYDROCHLORIDE]
Return: 29

Enquiry: Give reported Ratio CC50/IC50 value for COc1ccc2c(c1OC)CN1CCc3cc4c(cc3C1=C2)OCO4 [DIHYDROBERBERINE]
Return: 1.7
